targetOrSystem: AKT1 (PKB alpha) (Homo sapiens)
Sequence (P31749 whole entry, species assumed): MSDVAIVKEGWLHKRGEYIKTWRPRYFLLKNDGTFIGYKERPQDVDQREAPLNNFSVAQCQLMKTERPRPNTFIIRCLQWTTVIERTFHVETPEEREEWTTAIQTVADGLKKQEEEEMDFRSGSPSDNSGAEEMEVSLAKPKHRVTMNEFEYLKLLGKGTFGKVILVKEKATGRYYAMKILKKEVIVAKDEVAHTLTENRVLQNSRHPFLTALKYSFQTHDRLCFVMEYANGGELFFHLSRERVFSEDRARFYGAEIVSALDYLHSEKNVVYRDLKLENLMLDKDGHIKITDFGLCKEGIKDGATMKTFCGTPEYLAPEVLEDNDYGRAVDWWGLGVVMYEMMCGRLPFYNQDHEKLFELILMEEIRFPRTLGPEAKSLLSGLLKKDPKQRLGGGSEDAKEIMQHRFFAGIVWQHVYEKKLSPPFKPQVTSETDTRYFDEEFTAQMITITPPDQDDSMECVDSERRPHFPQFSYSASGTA
assayDetails: FRET-based coupled-enzyme protein kinase inhibition assay
Format: biochemical
reportedConditions: compound at 10 µM, 1% DMSO
Catalogue of molecules with associated inhibition at 10 µM
Give a bare numeral; the unit % is implied.

molecule | endpointUnit | endpointValue
Nc1ncnc2c1ncn2[C@@H]1O[C@H](COC(=O)NC[C@H](O)CO)[C@@H](O)[C@H]1O | % | 7
CC(C)N1CCC(NC(=O)OC[C@H]2O[C@@H](n3cnc4c(N)ncnc43)[C@H](O)[C@@H]2O)CC1 | % | 3
CS(=O)(=O)N1CC2(CCN(C(=O)OC[C@H]3O[C@@H](n4cnc5c(N)ncnc54)[C@H](O)[C@@H]3O)CC2)c2ccccc21 | % | 2
Nc1ncnc2c1ncn2[C@@H]1O[C@H](COC(=O)N2CCC(Cc3ccc(F)cc3)C2)[C@@H](O)[C@H]1O (some centres unmarked) | % | -1
Nc1ncnc2c1ncn2[C@@H]1O[C@H](COC(=O)N2CCC[C@H]2CO)[C@@H](O)[C@H]1O | % | 3
Nc1ncnc2c1ncn2[C@@H]1O[C@H](COC(=O)NCCN2CCCC2=O)[C@@H](O)[C@H]1O | % | 0
CN1CCN(CCNC(=O)OC[C@H]2O[C@@H](n3cnc4c(N)ncnc43)[C@H](O)[C@@H]2O)CC1 | % | 4
C[C@@H](NC(=O)OC[C@H]1O[C@@H](n2cnc3c(N)ncnc32)[C@H](O)[C@@H]1O)c1ccc(Cl)cc1 | % | -2

Exercise: Requested field: inhibition at 10 µM. Item: "Nc1ncnc2c1ncn2[C@@H]1O[C@H](COC(=O)NCCCc2nc3ccccc3[nH]2)[C@@H](O)[C@H]1O"
Solution: -2

Exercise: Field request: inhibition at 10 µM | item: "Nc1ncnc2c1ncn2[C@@H]1O[C@H](COC(=O)N2CCS(=O)(=O)CC2)[C@@H](O)[C@H]1O"
Solution: 8

Exercise: What measured inhibition at 10 µM goes with "CN(C)CCNC(=O)OC[C@H]1O[C@@H](n2cnc3c(N)ncnc32)[C@H](O)[C@@H]1O" ?
Solution: 4

Exercise: Which inhibition at 10 µM value belongs to "N#CCCN1CCN(C(=O)OC[C@H]2O[C@@H](n3cnc4c(N)ncnc43)[C@H](O)[C@@H]2O)CC1" ?
Solution: 8

Exercise: Please give the measured inhibition at 10 µM for this molecule: "Nc1ncnc2c1ncn2[C@@H]1O[C@H](COC(=O)N[C@@H]2CCN(Cc3ccccc3)C2)[C@@H](O)[C@H]1O"
Solution: 4

Exercise: Bench note: what inhibition at 10 µM did "Nc1ncnc2c1ncn2[C@@H]1O[C@H](COC(=O)N2CCN(C(=O)N3CCOCC3)CC2)[C@@H](O)[C@H]1O" show?
Solution: 2
